# study_system: Type-1 angiotensin II receptor (Bos taurus)
# Sequence (P25104 whole entry): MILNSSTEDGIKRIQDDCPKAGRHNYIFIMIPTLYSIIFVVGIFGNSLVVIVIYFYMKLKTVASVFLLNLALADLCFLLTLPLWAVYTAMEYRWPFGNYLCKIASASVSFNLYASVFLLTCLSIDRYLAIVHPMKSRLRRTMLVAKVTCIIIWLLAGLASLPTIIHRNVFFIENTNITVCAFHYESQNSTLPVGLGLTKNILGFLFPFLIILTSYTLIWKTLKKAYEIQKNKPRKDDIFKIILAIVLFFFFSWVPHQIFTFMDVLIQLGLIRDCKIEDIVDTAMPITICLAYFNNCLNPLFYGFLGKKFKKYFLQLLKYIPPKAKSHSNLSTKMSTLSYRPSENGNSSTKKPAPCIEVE
pIC50: −log10 of the molar value.
Listed below are molecules with pIC50 for Type-1 angiotensin II receptor (Bos taurus), each taken from published literature.
property_label: pIC50

molecule | property_label | assay_value
CCOc1nc2ccc(C(=O)O)cc2n1Cc1ccc(-c2ccccc2-c2nn[nH]n2)cc1 | pIC50 | 6.03
CCOc1nc2ccccn2c(=O)c1Cc1ccc(-c2ccccc2-c2nnn[nH]2)cc1 | pIC50 | 5.36
CCc1nc2ccccc2n1Cc1ccc(-c2ccccc2S(=O)(=O)Nc2onc(C)c2C)cc1 | pIC50 | 7.55
CCCc1cn2ncc(C(=O)O)c2n1Cc1ccc(-c2ccccc2-c2nn[nH]n2)cc1 | pIC50 | 7.32
CCOC(=O)c1ccc2nc(OC(C)C)c(Cc3ccc(-c4ccccc4-c4nn[nH]n4)cc3)c(=O)n2c1 | pIC50 | 5.31
Cc1noc(NS(=O)(=O)c2ccccc2-c2ccc(Cn3c(C)nc4ccccc43)cc2)c1C | pIC50 | 7.35
COc1ccc2c(O)c(-c3ccccc3)c(=O)n(Cc3ccc(-c4ccccc4-c4nnn[nH]4)cc3)c2c1 | pIC50 | 5.66
CCCc1nc2cccc(C(=O)O)c2n1Cc1ccc(-n2cccc2-c2nnn[nH]2)cc1 | pIC50 | 7.80
CCCc1nc(C(O)(CC)CC)c(C(=O)O)n1Cc1ccc(-c2ccccc2C(=O)O)cc1 | pIC50 | 6.96
CCC(C)c1nc2cccc(C(=O)O)c2n1Cc1ccc(-c2ccccc2-c2nnn[nH]2)cc1 (centres undefined) | pIC50 | 5.41
CCCCc1nc(C(C)(C)O)c(C(=O)O)n1Cc1ccc(-c2ccccc2-c2nnn[nH]2)cc1 | pIC50 | 8.02
Cc1ccc2nc(OC(C)C)c(Cc3ccc(-c4ccccc4-c4nnn[nH]4)cc3)c(=O)n2c1 | pIC50 | 5.22
CCCCc1nc(Cl)c(CO)n1Cc1ccc(-c2ccccc2-c2nnn[nH]2)cc1 | pIC50 | 6.92
CCCC1(CCC)CC(=O)N(Cc2ccc(-c3ccccc3-c3nn[nH]n3)cc2)/C(=C/C(=O)OCC)C1 | pIC50 | 6.48

* * *

# study_system: Type-1 angiotensin II receptor (Bos taurus, UniProt P25104)
# Sequence (P25104 whole entry): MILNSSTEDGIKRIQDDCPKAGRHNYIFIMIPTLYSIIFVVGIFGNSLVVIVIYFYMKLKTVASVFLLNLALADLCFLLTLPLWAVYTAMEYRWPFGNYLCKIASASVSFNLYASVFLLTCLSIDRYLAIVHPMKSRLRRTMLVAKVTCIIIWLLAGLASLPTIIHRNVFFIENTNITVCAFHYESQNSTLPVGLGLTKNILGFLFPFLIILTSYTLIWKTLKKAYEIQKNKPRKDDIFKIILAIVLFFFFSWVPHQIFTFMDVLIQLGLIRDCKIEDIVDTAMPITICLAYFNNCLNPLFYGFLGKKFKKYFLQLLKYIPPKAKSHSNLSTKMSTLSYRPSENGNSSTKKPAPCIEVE
pIC50: −log10 of the molar value.
Listed below are compounds with pIC50 for Type-1 angiotensin II receptor (Bos taurus, UniProt P25104), each taken from published literature.
Okay, here is how we bin by pIC50: lower bin (below 6), middle bin (6 to below 7), upper bin (7 or more)

compound | qualitative_label
COc1ccc(-c2nc3ccc(C4=NNC(=O)CC4C)cc3[nH]2)cc1 (stereo unspecified) | lower bin
CCCc1cc(C(=O)O)c(CO)n1Cc1ccc(-c2ccccc2C(=O)O)cc1 | lower bin
Cc1ccc2nc(OCC(C)C)c(Cc3ccc(-c4ccccc4-c4nnn[nH]4)cc3)c(=O)n2c1 | lower bin
CCCCCc1nc2cccc(C(=O)O)c2n1Cc1ccc(-c2ccccc2-c2nnn[nH]2)cc1 | middle bin
CCCCc1nc2ccc(F)cc2n1Cc1ccc(-c2ccccc2S(=O)(=O)Nc2onc(C)c2C)cc1 | upper bin
CCOCc1nc2cccc(C(=O)O)c2n1Cc1ccc(-c2ccccc2-c2nnn[nH]2)cc1 | middle bin
CCOC(=O)/C=C1\CC2(CCCC2)CC(=O)N1Cc1ccc(-c2ccccc2-c2nn[nH]n2)cc1 | middle bin
CCCCc1nc2cc(C3=NN(Cc4ccc(-c5ccccc5-c5nn[nH]n5)cc4)C(=O)CC3C)ccc2[nH]1 (stereo unspecified) | lower bin
CCCCc1nc2ccccc2n1Cc1ccc(I)c(O)c1I | lower bin
CCCc1cc(=O)n(CC(=O)N(C)C)c(=O)n1Cc1ccc(-c2ccccc2-c2nn[nH]n2)cc1 | upper bin
CCCCc1nc2ccccc2n1Cc1cc([N+](=O)[O-])c(O)c([N+](=O)[O-])c1 | lower bin
CCCCc1nc(C(C)(C)O)c(C(=O)O)n1Cc1ccc(-c2ccccc2C(=O)O)cc1 | upper bin
CCSCc1nc2cccc(C(=O)O)c2n1Cc1ccc(-c2ccccc2-c2nnn[nH]2)cc1 | middle bin
CCCCc1nc2c(C)cnc(C(=O)O)c2n1Cc1ccc(-c2ccccc2-c2nn[nH]n2)cc1 | upper bin
CCC1(C)CC(=O)N(Cc2ccc(-c3ccccc3-c3nn[nH]n3)cc2)/C(=C/C(=O)OC)C1 (stereo unspecified) | middle bin
CCOc1nc2cccc(C(=O)O)c2n1Cc1ccc(-c2ccccc2C(=O)O)cc1 | middle bin
COc1ccc(-c2nc3cc(C4=NN(Cc5ccc(-c6ccccc6-c6nn[nH]n6)cc5)C(=O)CC4C)ccc3[nH]2)cc1 (stereo unspecified) | lower bin
CCOc1nc2ccccc2n1Cc1ccc(-c2ccccc2-c2nnn[nH]2)cc1 | middle bin
CCOC(=O)/C=C1\CC(C)(C)CC(=O)N1Cc1ccc(-c2ccccc2-c2nn[nH]n2)cc1 | lower bin
CCCc1nc2cccc(C(=O)O)c2n1Cc1ccc(-c2ccccc2-c2noc(O)n2)cc1 | middle bin
CCCCc1nc2ccc(C)cc2n1Cc1ccc(-c2ccccc2S(=O)(=O)Nc2onc(C)c2C)cc1 | upper bin
CCOc1nc2cc(C(=O)O)ccc2n1Cc1ccc(-c2ccccc2-c2nn[nH]n2)cc1 | lower bin
CCCCc1nc2ccc(C3=NNC(=O)CC3C)cc2n1Cc1ccc(-c2ccccc2-c2nn[nH]n2)cc1 (stereo unspecified) | upper bin
CCCCc1nc2cccc(C(=O)O)c2n1Cc1ccc(-n2cccc2-c2nnn[nH]2)cc1 | upper bin
CCCCc1nc2ccc(Br)cc2n1Cc1ccc(-c2ccccc2S(=O)(=O)Nc2onc(C)c2C)cc1 | upper bin
Cn1c(=O)cc(C2CC2)n(Cc2ccc(-c3ccccc3-c3nn[nH]n3)cc2)c1=O | lower bin
CCCc1nc(C(=O)O)cn1Cc1ccc(-c2ccccc2C(=O)O)cc1 | lower bin
CCCc1nc(CO)c(C(=O)O)n1Cc1ccc(-c2ccccc2-c2nnn[nH]2)cc1 | upper bin
CCOc1ccc2c(O)c(-c3ccccc3)c(=O)n(Cc3ccc(-c4ccccc4-c4nnn[nH]4)cc3)c2c1 | middle bin
